# Test system: HELAN: sunflower (Helianthus annuus)
# test protocol: Post-Emergent Test II herbicidal activity
# Type: in vivo
# test context: post-emergence, 336 h, 70 g ai/ha, 14 days, read-out: Visual Growth Reduction (%) 14 Days After Application HELAN
# From the text: Post-Emergent Test II: Seeds or nutlets of the desired test plant species were planted in Sun Gro Metro-Mix® 360 planting mixture, which typically has a pH of 6.0 to 6.8 and an organic matter content of about 30 percent, in plastic pots with a surface area of 64 square centimeters. When required to ensure good germination and healthy plants, a fungicide treatment and/or other chemical or physical treatment was applied. […]
readout label: pest or weed control at 70 g/ha

Sample answers from the record:
COC(=O)c1nc(-c2ccc3nsnc3c2F)cc(N)c1Cl    0 to 29%
Nc1c(F)c(-c2ccc3nonc3c2)nc(C(=O)O)c1Cl    85 to 94%
COC(=O)c1nc(-c2ccc3nonc3c2Cl)cc(N)c1Cl    30 to 44%
COC(=O)c1nc(-c2cc3nsnc3cc2F)cc(N)c1Cl    60 to 74%
Nc1c(F)c(-c2ccc3nsnc3c2)nc(C(=O)O)c1Cl    95 to 100%

INPUT: Look up pest or weed control at 70 g/ha for this compound: `COC(=O)c1nc(-c2cc3nonc3cc2F)cc(N)c1Cl`
OUTPUT: 85 to 94%

INPUT: Next compound: `COC(=O)c1nc(-c2cc3nonc3cc2F)nc(N)c1OC`
OUTPUT: 0 to 29%

INPUT: `COC(=O)c1nc(-c2ccc3nonc3c2)c(F)c(N)c1Cl` , same question.
OUTPUT: 95 to 100%

INPUT: Follow-up item: `COc1cc2nonc2cc1-c1cc(N)c(Cl)c(C(=O)O)n1`
OUTPUT: 0 to 29%

INPUT: Now the same for `COC(=O)c1nc(-c2cc3nonc3cc2Cl)cc(N)c1Cl`
OUTPUT: 0 to 29%

---

// reported pest or weed control at 70 g/ha for each item listed
# System: AMARE: redroot pigweed (Amaranthus retroflexus)
# test protocol: Post-Emergent Test II herbicidal activity
# Type: in vivo
# test context: post-emergence, 336 h, 70 g ai/ha, 14 days, read-out: Visual Growth Reduction (%) 14 Days After Application AMARE

INPUT: Could you share which pest or weed control at 70 g/ha value was measured for `Nc1c(F)c(-c2ccc3nonc3c2)nc(C(=O)O)c1Cl` ?
OUTPUT: 95 to 100%

INPUT: // same read-out, input: `COC(=O)c1nc(-c2cc3nonc3cc2F)c(F)c(N)c1Cl`
OUTPUT: 95 to 100%

INPUT: Similarly, `COC(=O)c1nc(-c2cc3nonc3cc2Cl)cc(N)c1Cl` ?
OUTPUT: 0 to 29%

INPUT: Another compound to check: `COC(=O)c1nc(-c2ccc3nonc3c2)c(F)c(N)c1Cl`
OUTPUT: 75 to 84%

INPUT: Here is the next compound: `COC(=O)c1nc(-c2ccc3nsnc3c2)c(F)c(N)c1Cl`
OUTPUT: 95 to 100%

INPUT: Now consider `COC(=O)c1nc(-c2cccc3nonc23)cc(N)c1Cl` .
OUTPUT: 95 to 100%

---

# System: BRSNN: oilseed rape, canola (Brassica napus)
# test protocol: Post-Emergent Test II herbicidal activity
# Format: in vivo
# test context: post-emergence, 336 h, 35 g ai/ha, 14 days, read-out: Visual Growth Reduction (%) 14 Days After Application BRSNN
# Source text: Post-Emergent Test II: Seeds or nutlets of the desired test plant species were planted in Sun Gro Metro-Mix® 360 planting mixture, which typically has a pH of 6.0 to 6.8 and an organic matter content of about 30 percent, in plastic pots with a surface area of 64 square centimeters. When required to ensure good germination and healthy plants, a fungicide treatment and/or other chemical or physical treatment was applied. […]
Form field: pest or weed control at 35 g/ha (one value per entry).

COC(=O)c1nc(-c2ccc3nonc3c2Cl)cc(N)c1Cl [Compound 18]    60 to 74%
COC(=O)c1nc(-c2cc3nonc3cc2F)cc(N)c1Cl [Compound 4]    85 to 94%
COC(=O)c1nc(-c2cc3nonc3cc2F)nc(N)c1OC [Compound 10]    60 to 74%

INPUT: Give the measured pest or weed control at 35 g/ha of COC(=O)c1nc(-c2ccc3nonc3c2OC)cc(N)c1Cl [Compound 9] .
OUTPUT: 0 to 29%

---

# System: BRSNN: oilseed rape, canola (Brassica napus)
# test protocol: Post-Emergent Test II herbicidal activity
# Assay type: in vivo
# test context: post-emergence, 336 h, 35 g ai/ha, 14 days, read-out: Visual Growth Reduction (%) 14 Days After Application BRSNN
Known pest or weed control at 35 g/ha of a selection of compounds

Examples with their reported pest or weed control at 35 g/ha follow.
COC(=O)c1nc(-c2ccc3nsnc3c2F)cc(N)c1Cl [Compound 14]    0 to 29%
COC(=O)c1nc(-c2cc3nonc3cc2Cl)cc(N)c1Cl [Compound 8]    0 to 29%
Nc1c(F)c(-c2ccc3nsnc3c2)nc(C(=O)O)c1Cl [Compound 12]    75 to 84%

INPUT: Query pest or weed control at 35 g/ha on BRSNN: oilseed rape, canola (Brassica napus) for COC(=O)c1nc(-c2cccc3nonc23)cc(N)c1Cl [Compound 16]
OUTPUT: 30 to 44%

INPUT: # repeat for COC(=O)c1nc(-c2cc3nonc3cc2F)c(F)c(N)c1Cl [Compound 3]
OUTPUT: 85 to 94%
